So I've got a bunch of compounds here, and I need their % conversion values.
molecular target: His6-AspH315–758 (human aspartate/asparagine-β-hydroxylase, AspH) (Homo sapiens, UniProt Q12797); construct: N-Terminally His6-tagged human AspH315–758 (His6-AspH315–758) was produced in E. coli BL21 (DE3) cells; made in house; host or cells: E. coli BL21 (DE3), pET-28a(+) vector; experiment: SPE-MS AspH inhibition assay (LOPAC screen at fixed 20 μM and IC50 dose-response), hydroxylation of cyclic peptide hFX-CP101–119; format: biochemical
Please provide the amount together with its unit, number first.

Solved cases (10 shown):
[[record]]
compound = "CP(=O)(O)C1=CCNCC1"
value = "27.88%"

[[record]]
compound = "C[n+]1cc2c3c(ccc2c2ccc4cc5c(cc4c21)OCO5)OCO3 [Sanguinarine chloride]"
value = "10.82%"

[[record]]
compound = "CC(=O)OC[C@H]1O[C@@H]([S-])[C@H](OC(C)=O)[C@@H](OC(C)=O)[C@@H]1OC(C)=O.CCP(CC)CC.[Au+]"
value = "18.61%"

[[record]]
compound = "CC(C)C[C@H](NP(=O)([O-])O[C@H]1O[C@H](C)[C@@H](O)[C@H](O)[C@@H]1O)C(=O)N[C@@H](Cc1c[nH]c2ccccc12)C(=O)[O-].[Na+].[Na+] [Phosphoramidon disodium]"
value = "33.86%"

[[record]]
compound = "Cc1cc2c(s1)Nc1ccccc1N=C2N1CCN(C)CC1"
value = "42.51%"

[[record]]
compound = "Cl.NCCNS(=O)(=O)c1cccc2c(Cl)cccc12 [A3 hydrochloride]"
value = "25.50%"

[[record]]
compound = "Cn1c(=O)c2[nH]cnc2n(C)c1=O"
value = "39.26%"

[[record]]
compound = "CCc1ccccc1OC[C@@H](O)CN[C@H]1CCCc2ccccc21.O=C(O)C(=O)O [SR 59230A oxalate]"
value = "13.86%"

[[record]]
compound = "C/C=C(/C)C(=O)O[C@H]1C(C)=C2[C@H]([C@@H]1OC(=O)CCCCCCC)[C@@](C)(OC(C)=O)C[C@H](OC(=O)CCC)[C@@]1(O)[C@H]2OC(=O)[C@@]1(C)O"
value = "31.20%"

[[record]]
compound = "C=C(C)[C@H]1Cc2c(ccc3c2O[C@@H]2COc4cc(OC)c(OC)cc4[C@@H]2C3=O)O1"
value = "46.53%"


Dear colleague, could you send me % conversion for each of the items below? Thanks.
1. N#C/C(=C\c1ccc(O)c(O)c1)C(N)=S [Tyrphostin 47, reference compound]
2. COc1ccccc1N1CCNCC1.Cl
3. CC(C)NP(=O)(NC(C)C)OP(=O)(NC(C)C)NC(C)C [Tetraisopropyl pyrophosphoramide]
4. Clc1cnc(Oc2ccc(Oc3ncc(Cl)cc3Cl)cc2)c(Cl)c1
5. C=CCN1C[C@H](C)N([C@H](c2ccc(C(=O)N(CC)CC)cc2)c2cccc(OC)c2)C[C@H]1C
6. COC[C@H]1OC(=O)c2coc3c2[C@@]1(C)C1=C(C3=O)[C@@H]2CCC(=O)[C@@]2(C)C[C@H]1OC(C)=O

Result ::
2.14%
37.50%
27.56%
30.30%
40.53%
29.28%

###

Molecular target: His6-AspH315–758 (human aspartate/asparagine-β-hydroxylase, AspH) (Homo sapiens)
Construct: N-Terminally His6-tagged human AspH315–758 (His6-AspH315–758) was produced in E. coli BL21 (DE3) cells; made in house; host or cells: E. coli BL21 (DE3), pET-28a(+) vector
Sequence (Q12797 315-758): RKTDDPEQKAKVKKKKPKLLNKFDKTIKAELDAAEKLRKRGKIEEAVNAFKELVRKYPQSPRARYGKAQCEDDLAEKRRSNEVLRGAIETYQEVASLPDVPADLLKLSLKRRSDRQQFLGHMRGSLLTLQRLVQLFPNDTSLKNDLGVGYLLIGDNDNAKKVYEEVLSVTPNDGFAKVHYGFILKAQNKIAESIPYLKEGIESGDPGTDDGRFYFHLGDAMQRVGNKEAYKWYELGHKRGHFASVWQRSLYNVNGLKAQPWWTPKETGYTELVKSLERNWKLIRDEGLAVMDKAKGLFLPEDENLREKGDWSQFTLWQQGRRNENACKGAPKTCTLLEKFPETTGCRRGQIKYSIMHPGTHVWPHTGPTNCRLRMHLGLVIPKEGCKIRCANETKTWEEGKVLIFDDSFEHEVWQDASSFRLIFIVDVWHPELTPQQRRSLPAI
Assay: SPE-MS AspH inhibition assay (LOPAC screen at fixed 20 μM and IC50 dose-response), hydroxylation of cyclic peptide hFX-CP101–119
Assay type: biochemical
Details: LOPAC compound at fixed 20 uM; plate 1, normalised to DMSO and 2,4-PDCA controls
Where a name gives a salt, the structure may show the parent alone.
Reported Endpoint: Plate 1 (% inhibition)

[[record]]
compound = "CC[C@H](NC(=O)c1c(C)c(-c2ccccc2)nc2ccccc12)c1ccccc1 [SB 222200]"
reported_endpoint = "Plate 1 (% inhibition)"
value = "-26.34%"

[[record]]
compound = "CN1[C@@H]2CC[C@H]1C[C@@H](OC(c1ccccc1)c1ccccc1)C2 [Benztropine mesylate]"
reported_endpoint = "Plate 1 (% inhibition)"
value = "-9.74%"

[[record]]
compound = "COc1cc(NS(C)(=O)=O)ccc1Nc1c2ccccc2nc2ccccc12 [Amsacrine hydrochloride]"
reported_endpoint = "Plate 1 (% inhibition)"
value = "-10.85%"

[[record]]
compound = "C=CC[C@H](N)C(=O)O [L-allylglycine]"
reported_endpoint = "Plate 1 (% inhibition)"
value = "0.29%"

[[record]]
compound = "Br.C=CCN1CCc2c(cc(O)c(O)c2Br)[C@@H](c2ccccc2)C1 [R(+)-6-Bromo-APB hydrobromide, reference compound]"
reported_endpoint = "Plate 1 (% inhibition)"
value = "95.00%"

[[record]]
compound = "NC[C@H](O)c1ccc(O)c(O)c1.O=C(O)C(O)C(O)C(=O)O (racemic) [(±)-Norepinephrine (+)bitartrate]"
reported_endpoint = "Plate 1 (% inhibition)"
value = "92.57%"


Lab note: measured Plate 1 (% inhibition) of C[C@H]1C[C@H]2[C@@H]3CCC4=CC(=O)C=C[C@]4(C)[C@@]3(F)[C@@H](O)C[C@]2(C)[C@@]1(O)C(=O)CO [Betamethasone] was -5.12%
